# TARGET ENTITY: T1, AePiwi4 PAZ T41R (Aedes aegypti, UniProt Q171B3 270-380, T310R)
# T1 sequence: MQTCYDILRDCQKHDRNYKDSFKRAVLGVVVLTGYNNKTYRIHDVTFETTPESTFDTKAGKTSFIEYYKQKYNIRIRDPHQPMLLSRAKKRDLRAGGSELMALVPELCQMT
# METHOD: SPR; SPR (Biacore T100, CM5-neutravidin, 5'-biotin RNA immobilized): 10 mM HEPES pH 7.4, 150 mM NaCl, 3 mM EDTA, 0.005% P20; steady-state fit; temperature not stated
# REPORTED CONDITIONS: protein: recombinant; tags: 6xHis (C-terminal); label: 5' biotin; single strand
pKd values for the binders below.
Give only the number. pKd is defined as minus log10 of concentration in molar units.

BINDER	pKd
CGAUAAGUGAUCUUUCAGCACUGCAGAA (ssRNA) [3'nm 28 nt PCLV piRNA]	5.70

Moving on to the next binder.
Need pKd, item CGAUAAGUGAUCUUUCAGCACUGCAGAA (ssRNA, 3' terminal 2'-O-methyl) [3'm 28 nt PCLV piRNA]
6.24
